assay-explanation: RP, Waters ACQUITY UPLC BEH C18, 100 × 2.1 mm, 1.7 µm, 0.3 mL/min, estimated dead time 0.73 min; A: water + 0.1% formic acid, pH 3; B: methanol + 0.1% formic acid, pH 3; gradient (min/%B) 0/10 14/90 16/90 18/10
applied-conditions: stereoisomer not certain
# label 1 = LC retention time below 8 min (exclusive); label 0 = LC retention time at/above 8 min

Please check: LC retention time for COc1cnc(NS(=O)(=O)c2ccc(N)cc2)nc1 , strictly under 8 min or not?
label 1

Report whether reported LC retention time is lower than 8 min (strictly) for CC(C)NCC(O)COc1ccc(CC(N)=O)cc1 (configuration not stated)
label 0

Please check: LC retention time for CCSC(=O)N(CC)C1CCCCC1 [Cycloate] , strictly under 8 min or not?
label 0

Quick check: does C=C(C)C1(O)OC(=O)C=C1OC (configuration not stated) have LC retention time under 8 min?
label 1

Please determine if CS(=O)(=O)c1ccc(C(O)C(CO)NC(=O)C(Cl)Cl)cc1 (configuration not stated) is below 8 min in terms of LC retention time.
label 1

Is 8 min strictly greater than the compound's reported LC retention time? compound: CC(=O)OCC(=O)C1(O)CCC2C3CCC4=CC(=O)C=CC4(C)C3C(O)CC21C (configuration not stated) [Prednisolone 21-acetate]
label 0

Lab note: LC retention time threshold 8 min. Does this compound come in strictly under it? O=C(O)COC(=O)Cc1ccccc1Nc1c(Cl)cccc1Cl
label 0

Criterion: LC retention time strictly below 8 min. Is it met by COCC(=O)N(c1c(C)cccc1C)C(C)C(=O)OC (configuration not stated) [Metalaxyl] ?
label 0

Say whether its LC retention time is strictly beneath 8 min. Entry: CC1=C(C(=O)O)N2C(=O)C(NC(=O)C(N)c3ccccc3)C2SC1 (configuration not stated)
label 1

Problem: For the compound CCC(C)(C)NCC(O)c1cc(Cl)c(N)c(Cl)c1 (configuration not stated) , is LC retention time under 8 min?
label 1

Hello, I'm reviewing records and need to know if LC retention time of Nc1ccccc1O is below 8 min. Could you check?
label 1

For O=C(O)c1ccccc1O , is the recorded LC retention time below the cut-off of 8 min?
label 1

hey, is LC retention time for Cc1ccc(C(=CCN2CCCC2)c2ccccn2)cc1 lower than 8 min or not?
label 1

Is it true that LC retention time reported for CC1(C(=O)Nc2ccc(O)c(Cl)c2Cl)CCCCC1 is less than 8 min?
label 0

hey, is LC retention time for CC(N)Cc1ccc2c(c1)OCO2 (configuration not stated) lower than 8 min or not?
label 1

API: query returns whether the compound falls strictly under 8 min in LC retention time. Query: COc1ccnc(CS(=O)c2nc3ccc(OC(F)F)cc3[nH]2)c1OC (configuration not stated)
label 1

Consider the compound CCCC(=NOCC)C1C(=O)CC(CC(C)SCC)CC1=O (configuration not stated) . Is its LC retention time strictly less than 8 min?
label 0

Strictly below 8 min in LC retention time? Cc1c(N)c(=O)n(-c2ccccc2)n1C [4-amino-antipyrine]
label 1

Bench note: check whether CC1CCCC(O)CCCCCc2cc(O)cc(O)c2C(=O)O1 (configuration not stated) shows LC retention time below 8 min
label 0

Lab log: compare recorded LC retention time with 8 min; is it strictly lower for COP(=O)(OC)Oc1ccc(S(C)=O)c(C)c1 (configuration not stated) [Fenoxon sulfoxide] ?
label 1

I wonder whether CC12Cc3cn[nH]c3CC1CCC1C2CCC2(C)C1CCC2(C)O (configuration not stated) has LC retention time below 8 min. Can you tell?
label 0

# strict comparison: is reported LC retention time < 8 min? input = Cc1ccc(N=CN(C)C=Nc2ccc(C)cc2C)c(C)c1
label 0

Please indicate whether the reported LC retention time of CCNc1nc(NCC)nc(SC)n1 is strictly below 8 min.
label 0

Is it true that LC retention time reported for CCn1cc(C(=O)O)c(=O)c2cc3c(cc21)OCO3 is less than 8 min?
label 1

Determine whether this compound shows LC retention time lower than 8 min (ties excluded): CC(COc1ccc(Oc2ccccc2)cc1)Oc1ccccn1 (configuration not stated)
label 0

I wonder whether COP(=O)(OC)C(O)C(Cl)(Cl)Cl (configuration not stated) has LC retention time below 8 min. Can you tell?
label 1

Lab note: confirm whether the reported LC retention time for this compound is below 8 min, equality not counting. compound: CN(C)c1ccc(C(c2ccccc2)c2ccc(N(C)C)cc2)cc1
label 0

Lab note: confirm whether the reported LC retention time for this compound is below 8 min, equality not counting. compound: CCOc1ccccc1OS(=O)(=O)NC(=O)Nc1nc(OC)cc(OC)n1
label 0

Strictly below 8 min in LC retention time? Cc1ccccc1C(=O)Nc1cccc(OC(C)C)c1
label 0

Take the compound CCCCC(CC)COC(=O)c1ccccc1C(=O)OCC(CC)CCCC (configuration not stated) [Bis-(2-ethylhexyl) phthalate] and say whether its LC retention time is less than 8 min.
label 0

hey, is LC retention time for CCOc1cc(C(C)(C)C)ccc1C1COC(c2c(F)cccc2F)=N1 (configuration not stated) lower than 8 min or not?
label 0

LC retention time strictly < 8 min for this compound? CCCC(=NOCC)C1=C(O)CC(C2CCCSC2)CC1=O (configuration not stated)
label 0

Ref: the RepoRT retention time repository (doi:10.1016/j.scitotenv.2015.08.078)
